// data source = ChEMBL document CHEMBL2331531

# MEASUREMENT PROTOCOL: Cmax in Sprague-Dawley rat at 1 mg/kg, iv by LC-MS/MS analysis
# Assay type: ADME, organism-based
# Parameters: dose 1 mg/kg, route intravenous
# REPORTED CONDITIONS: in vivo
READOUT TYPE: Cmax (nM)

Solved entries (count: 3):
Looking up COc1cccc(CN(CCN2CCCC2)C(=O)Nc2ccc(-c3cn[nH]c3)cc2)c1 , I found its Cmax recorded as 480

Cmax in this record for CN(C)CCC(NC(=O)Nc1ccc(-c2cn[nH]c2)cc1)c1ccccc1 (stereo not given) : 200

Reported Cmax for CCN(Cc1cccc(OC)c1)C(=O)Nc1ccc(-c2cn[nH]c2)cc1O[C@H]1CCN(C)C1 was 1100

(P) COc1cccc(CN(C)C(=O)Nc2ccc(-c3cn[nH]c3)cc2)c1
(Q) O=C(Nc1ccc(-c2cn[nH]c2)cc1)NC(CCO)c1cccc(F)c1 (stereo not given)
Prompt: Choose between P and Q : whose measured Cmax value is numerically larger? Respond with the label that goes with your answer.
Response: Q
(Q: 9200 nM, P: 2600 nM)

====

# SYSTEM UNDER TEST: Cytochrome P450 2D6 (Homo sapiens)
# Sequence (P10635 whole entry): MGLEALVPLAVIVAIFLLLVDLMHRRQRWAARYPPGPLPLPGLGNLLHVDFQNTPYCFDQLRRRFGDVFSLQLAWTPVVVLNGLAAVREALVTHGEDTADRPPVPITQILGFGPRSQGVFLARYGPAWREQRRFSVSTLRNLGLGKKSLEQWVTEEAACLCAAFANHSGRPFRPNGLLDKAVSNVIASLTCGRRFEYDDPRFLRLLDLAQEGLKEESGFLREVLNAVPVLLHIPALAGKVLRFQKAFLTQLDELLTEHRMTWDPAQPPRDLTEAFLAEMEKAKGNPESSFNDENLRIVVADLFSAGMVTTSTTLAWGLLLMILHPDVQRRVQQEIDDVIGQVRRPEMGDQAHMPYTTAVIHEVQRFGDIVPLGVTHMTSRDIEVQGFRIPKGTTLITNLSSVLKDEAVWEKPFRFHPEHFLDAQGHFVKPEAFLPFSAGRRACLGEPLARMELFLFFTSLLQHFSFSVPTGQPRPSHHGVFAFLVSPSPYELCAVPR
READOUT TYPE: IC50 (µM)
Report as a plain number; the unit µM is understood.

// compound COc1cccc(CN(CCO)C(=O)Nc2ccc(-c3cn[nH]c3)cc2)c1 , assay Cytochrome P450 2D6 (Homo sapiens), IC50 value: 40

====

# MEASUREMENT PROTOCOL: Volume of distribution in Sprague-Dawley rat at 1 mg/kg, iv by LC-MS/MS analysis
# Format: ADME, organism-based
# Parameters: dose 1 mg/kg, route intravenous
# REPORTED CONDITIONS: in vivo
READOUT TYPE: Vd (L/kg)

Below: 2 compounds and their reported Vd.
What the record says about COc1cccc(CN(CCN2CCOCC2)C(=O)Nc2ccc(-c3cn[nH]c3)cc2)c1 : Vd is 3.5

Recorded Vd (compound CCN(Cc1cccc(OC)c1)C(=O)Nc1ccc(-c2cn[nH]c2)cc1O[C@H]1CCN(C)C1 ): 2.6

(I) COc1cccc(C(CCO)NC(=O)Nc2ccc(-c3cn[nH]c3)cc2)c1 (stereo unspecified)
(II) O=C(Nc1ccc(-c2cn[nH]c2)cc1)N(CCO)Cc1ccccc1
Prompt: From the recorded data, which exceeds the other in Vd: I or II ? Your answer should be the label of the entry you select.
Response: II

(a) O=C(Nc1ccc(-c2cn[nH]c2)cc1)NC(CCO)c1cccc(F)c1 (stereo unspecified)
(b) COc1cccc(CN(CCN2CCCCC2)C(=O)Nc2ccc(-c3cn[nH]c3)cc2)c1
Prompt: Consider a and b . Which of these has its Vd at a higher number? The response must carry the label of the picked entry.
Response: b
(b: 4.3 L/kg, a: 0.7 L/kg)

====

# MEASUREMENT PROTOCOL: Half life in Sprague-Dawley rat at 1 mg/kg, iv by LC-MS/MS analysis
# Assay type: ADME, organism-based
# Set-up: dose 1 mg/kg, route intravenous
# REPORTED CONDITIONS: in vivo
READOUT TYPE: half-life (h)

Below are worked cases with known answers.
The compound O=C(Nc1ccc(-c2cn[nH]c2)cc1)N(CCO)Cc1ccccc1 showed half-life equal to 1.9

get_value(item= O=C(Nc1ccc(-c2cn[nH]c2)cc1)NC(CCO)c1cccc(F)c1 (stereo unspecified) , readout=half-life) returns 2.1

Item: COc1cccc(C(CCO)NC(=O)Nc2ccc(-c3cn[nH]c3)cc2)c1 (stereo unspecified) | half-life: 0.7

(I) COc1cccc(CN(CCN(C)C)C(=O)Nc2ccc(-c3cn[nH]c3)cc2)c1
(II) COc1cccc(CN(CCN2CCOCC2)C(=O)Nc2ccc(-c3cn[nH]c3)cc2)c1
Prompt: Lower value of half-life belongs to which: I or II ? // output: label of the selected item
Response: I

(A) CCN(Cc1cccc(OC)c1)C(=O)Nc1ccc(-c2cn[nH]c2)cc1O[C@H]1CCN(C)C1
(B) COc1cccc(CN(CCO)C(=O)Nc2ccc(-c3cn[nH]c3)cc2)c1
(C) CN(C)CCC(NC(=O)Nc1ccc(-c2cn[nH]c2)cc1)c1ccccc1 (stereo unspecified)
Prompt: Output the entries ranked by half-life from maximum down to minimum. Would you mind listing the labels in the order asked for?
Response: C, B, A
(C: 2.4 h, B: 1.6 h, A: 1 h)
